system: SW-1736; test: Cytotoxicity against human SW1736 cells assessed as reduction in cell proliferation after 96 hrs by sulforhodamine B assay; assay type: functional, cell-based; details: SW-1736, 96 h
Exercise: state measured EC50 for each of the molecules provided.
Numbers only, in µM.

smilesnotation=CC(=O)O[C@H]1C[C@]2(C)[C@H]3CC=C4[C@@H]5[C@@H](C)[C@H](C)CC[C@]5(NC(=O)c5ccccc5)CC[C@@]4(C)[C@]3(C)CC[C@H]2C(C)(C)[C@H]1OC(C)=O testsystem=SW-1736 observedmeasurement=14.9

Query molecule follows.
Query: What value of EC50 has been reported for the following molecule? CC(=O)O[C@H]1C[C@]2(C)[C@H]3CC=C4[C@@H]5CC(C)(C)CC[C@]5(C(=O)Nc5ccccc5)CC[C@@]4(C)[C@]3(C)CC[C@H]2C(C)(C)[C@H]1OC(C)=O
Result: 2.7
